Hello, the source for this data is patent EP4541796A1, in case you need it.

Test system: esophageal cancer cells OE33
procedure.details: In vitro inhibitory activity of compounds (small molecule toxins), CCK-8 cell growth assay
Type: cell-based
condition.notes: Homo sapiens; OE33 cells; read-out: IC50 values for inhibiting the growth of esophageal cancer cells
pIC50: −log10 of the molar value.
List of pIC50 values.

compound | pIC50
CC[C@@]1(O)C(=O)OCc2c1cc1n(c2=O)Cc2c-1nc1cc(F)c(C)c3c1c2[C@@H](NC(=O)N(C)N)CC3 [Compound 2, Exatecan-N-methyl-N-aminourea] | > 8.00
CC[C@@]1(O)C(=O)OCc2c1cc1n(c2=O)Cc2c-1nc1cc(F)c(C)c3c1c2[C@@H](NC(=O)CONC)CC3 [Compound 8, 2-methylaminooxyacetyl exatecan] | > 8.00
CC[C@@]1(O)C(=O)OCc2c1cc1n(c2=O)Cc2c-1nc1cc(F)c(C)c3c1c2[C@@H](NC(=O)C1(N)COC1)CC3 [Compound 13, 3-aminooxetane-3-acetyl exatecan] | > 8.00
CC[C@@]1(O)C(=O)OCc2c1cc1n(c2=O)Cc2c-1nc1cc(F)c(C)c3c1c2[C@@H](NC(=O)N(C)NC)CC3 [Compound 3, Exatecan-N',N-dimethylaminourea] | > 8.00
CC[C@@]1(O)C(=O)OCc2c1cc1n(c2=O)Cc2c-1nc1cc(F)c(C)c3c1c2[C@@H](NC(=O)CNOC)CC3 [Compound 7, 2-methoxyaminoacetyl exatecan] | > 8.00
CC[C@@]1(O)C(=O)OCc2c1cc1n(c2=O)Cc2c-1nc1cc(F)c(C)c3c1c2[C@@H](NC(=O)CN(C)N)CC3 [Compound 9, 2-N-methyl-N-aminoacetyl exatecan] | > 8.00

---

System: esophageal cancer cells OE33
procedure.details: In vitro inhibitory activity of compounds (small molecule toxins), CCK-8 cell growth assay
Format: cell-based
condition.notes: Homo sapiens; Inhibitory activity against OE33; small molecules, 72 h incubation; read-out: IC50/nM

compound | IC50
CC[C@@]1(O)C(=O)OCc2c1cc1n(c2=O)Cc2c-1nc1cc(F)c(C)c3c1c2[C@@H](NC(=O)CO)CC3 [Dxd, reference compound] | < 50 nM
CC[C@@]1(O)C(=O)OCc2c1cc1n(c2=O)Cc2c-1nc1cc(F)c(C)c3c1c2[C@@H](NC(=O)C(=O)N(C)N)CC3 [Compound 5, Exatecan N'-amino-N-methyloxalyldiamine] | 50 to 100 nM
CC[C@@]1(O)C(=O)OCc2c1cc1n(c2=O)Cc2c-1nc1cc(F)c(C)c3c1c2[C@@H](NC(=O)NN)CC3 [Compound 1, Exatecan-N-aminourea] | 50 to 100 nM
CC[C@@]1(O)C(=O)OCc2c1cc1n(c2=O)Cc2c-1nc1cc(F)c(C)c3c1c2[C@@H](NC(=O)N(C)N)CC3 [Compound 2, Exatecan-N-methyl-N-aminourea] | < 50 nM

---

System: esophageal cancer cells OE33
procedure.details: In vitro inhibitory activity of compounds (small molecule toxins), CCK-8 cell growth assay
Assay type: cell-based
condition.notes: Homo sapiens; Inhibitory activity against OE33; small molecules, 72 h incubation; read-out: IC50/nM
Procedure: Human esophageal cancer cells OE33, and human breast adenocarcinoma cells SK-BR-3 were cultured in RPMI1640 (Cellmax) containing 10% fetal bovine serum (Cellmax), respectively. […] Absorbance was measured at 630nm as the reference wavelength and 450nm as the test wavelength. The IC50 values (Tables 1-3) were calculated using the four-parameter logistic regression method in GraphPad, based on the absorbance values. […]

molecule | IC50
CC[C@@]1(O)C(=O)OCc2c1cc1n(c2=O)Cc2c-1nc1cc(F)c(C)c3c1c2[C@@H](NC(=O)CONC)CC3 | < 50 nM
CC[C@@]1(O)C(=O)OCc2c1cc1n(c2=O)Cc2c-1nc1cc(F)c(C)c3c1c2[C@@H](NC(=O)CNOC)CC3 | < 50 nM
CC[C@@]1(O)C(=O)OCc2c1cc1n(c2=O)Cc2c-1nc1cc(F)c(C)c3c1c2[C@@H](NC(=O)CN(C)O)CC3 [Compound 11, 2-N-methylhydroxyaminoacetyl exatecan] | 50 to 100 nM
CCONCC(=O)N[C@H]1CCc2c(C)c(F)cc3nc4c(c1c23)Cn1c-4cc2c(c1=O)COC(=O)[C@]2(O)CC | 50 to 100 nM
CC[C@@]1(O)C(=O)OCc2c1cc1n(c2=O)Cc2c-1nc1cc(F)c(C)c3c1c2[C@@H](NC(=O)N(C)NC)CC3 | < 50 nM

---

List of IC50 values.
System: esophageal cancer cells OE33
procedure.details: In vitro inhibitory activity of compounds (small molecule toxins), CCK-8 cell growth assay
Format: cell-based
condition.notes: Homo sapiens; Inhibitory activity against OE33; small molecules, 72 h incubation; read-out: IC50/nM

molecule | IC50
CC[C@@]1(O)C(=O)OCc2c1cc1n(c2=O)Cc2c-1nc1cc(F)c(C)c3c1c2[C@@H](NC(=O)CN(C)NC)CC3 [Compound 10, 2-N-methyl-N-methylaminoacetyl exatecan] | 50 to 100 nM
CC[C@@]1(O)C(=O)OCc2c1cc1n(c2=O)Cc2c-1nc1cc(F)c(C)c3c1c2[C@@H](NC(=O)C1(N)COC1)CC3 [Compound 13, 3-aminooxetane-3-acetyl exatecan] | < 50 nM
CC[C@@]1(O)C(=O)OCc2c1cc1n(c2=O)Cc2c-1nc1cc(F)c(C)c3c1c2[C@@H](NC(=O)CN(C)N)CC3 [Compound 9, 2-N-methyl-N-aminoacetyl exatecan] | < 50 nM
CC[C@@]1(O)C(=O)OCc2c1cc1n(c2=O)Cc2c-1nc1cc(F)c(C)c3c1c2[C@@H](NC(=O)C(=O)NN)CC3 [Compound 4, Exatecan-N'-amino oxalyldiamine] | 50 to 100 nM
CC[C@@]1(O)C(=O)OCc2c1cc1n(c2=O)Cc2c-1nc1cc(F)c(C)c3c1c2[C@@H](NC(=O)CNO)CC3 [Compound 6, 2-hydroxyaminoacetyl exatecan] | 50 to 100 nM

---

System: breast adenocarcinoma cells SK-BR-3
procedure.details: In vitro inhibitory activity of compounds (small molecule toxins), CCK-8 cell growth assay
Format: cell-based
condition.notes: Homo sapiens; Inhibitory activity against SK-BR-3; small molecules, 72 h incubation

molecule | assayed.system | IC50
CC[C@@]1(O)C(=O)OCc2c1cc1n(c2=O)Cc2c-1nc1cc(F)c(C)c3c1c2[C@@H](NC(=O)NN)CC3 | breast adenocarcinoma cells SK-BR-3 | 50 to 100 nM
CC[C@@]1(O)C(=O)OCc2c1cc1n(c2=O)Cc2c-1nc1cc(F)c(C)c3c1c2[C@@H](NC(=O)C(=O)NN)CC3 | breast adenocarcinoma cells SK-BR-3 | 50 to 100 nM
CC[C@@]1(O)C(=O)OCc2c1cc1n(c2=O)Cc2c-1nc1cc(F)c(C)c3c1c2[C@@H](NC(=O)CONC)CC3 | breast adenocarcinoma cells SK-BR-3 | < 50 nM
CC[C@@]1(O)C(=O)OCc2c1cc1n(c2=O)Cc2c-1nc1cc(F)c(C)c3c1c2[C@@H](NC(=O)N(C)NC)CC3 | breast adenocarcinoma cells SK-BR-3 | < 50 nM
CC[C@@]1(O)C(=O)OCc2c1cc1n(c2=O)Cc2c-1nc1cc(F)c(C)c3c1c2[C@@H](NC(=O)C1(N)COC1)CC3 | breast adenocarcinoma cells SK-BR-3 | < 50 nM
CC[C@@]1(O)C(=O)OCc2c1cc1n(c2=O)Cc2c-1nc1cc(F)c(C)c3c1c2[C@@H](NC(=O)CO)CC3 [Dxd, reference compound] | breast adenocarcinoma cells SK-BR-3 | < 50 nM
CC[C@@]1(O)C(=O)OCc2c1cc1n(c2=O)Cc2c-1nc1cc(F)c(C)c3c1c2[C@@H](NC(=O)C(=O)N(C)N)CC3 | breast adenocarcinoma cells SK-BR-3 | < 50 nM
